Field: Percent Effect. Provide a value for each of the molecules that follow.
- SYSTEM_NAME: Tyrosyl-tRNA synthetase, putative (Trypanosoma cruzi (strain CL Brener)) (UniProt Q4DSP6)
- Sequence (Q4DSP6 as listed by the source): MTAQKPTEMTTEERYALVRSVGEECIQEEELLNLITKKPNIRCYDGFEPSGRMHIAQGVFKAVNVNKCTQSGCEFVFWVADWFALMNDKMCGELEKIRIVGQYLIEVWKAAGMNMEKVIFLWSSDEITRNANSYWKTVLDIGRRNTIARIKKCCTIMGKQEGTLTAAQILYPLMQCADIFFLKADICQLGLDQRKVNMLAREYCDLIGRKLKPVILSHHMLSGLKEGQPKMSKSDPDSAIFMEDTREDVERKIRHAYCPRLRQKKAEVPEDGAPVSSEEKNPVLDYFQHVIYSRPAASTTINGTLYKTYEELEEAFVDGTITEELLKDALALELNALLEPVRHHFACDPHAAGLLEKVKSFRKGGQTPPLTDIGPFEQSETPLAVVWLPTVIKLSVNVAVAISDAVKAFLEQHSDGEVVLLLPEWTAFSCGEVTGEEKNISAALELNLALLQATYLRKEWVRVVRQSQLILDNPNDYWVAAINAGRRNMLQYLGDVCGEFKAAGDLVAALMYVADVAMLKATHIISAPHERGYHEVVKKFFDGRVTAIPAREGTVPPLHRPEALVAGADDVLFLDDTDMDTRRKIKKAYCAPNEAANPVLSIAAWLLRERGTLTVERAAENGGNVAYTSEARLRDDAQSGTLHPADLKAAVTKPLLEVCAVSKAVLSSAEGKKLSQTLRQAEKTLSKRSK
- ASSAY_DETAILS: Trypanosoma cruzi tyrosyl tRNA synthetase (TcYRS) SOP
- Format: functional
- Set-up: scale not given: direction of the effect not stated beside the values
- PARTICULARS: 30 µM
Hi! Could you send only the number? It should be in %, unit omitted.

Param readout = Percent Effect; param system = Tyrosyl-tRNA synthetase, putative (Trypanosoma cruzi (strain CL Brener)) (UniProt Q4DSP6); param query = c1cc(C2CCCN2Cc2nnnn2C2CC2)cs1 (configuration not stated) ; response: value
10.3

Param readout = Percent Effect; param system = Tyrosyl-tRNA synthetase, putative (Trypanosoma cruzi (strain CL Brener)) (UniProt Q4DSP6); param query = `COc1cc(CNCCc2cnn(C)c2)cc2c1OCCO2` ; response: value
12.2

Param readout = Percent Effect; param system = Tyrosyl-tRNA synthetase, putative (Trypanosoma cruzi (strain CL Brener)) (UniProt Q4DSP6); param query = Cn1cnnc1C1CCCN(C(=O)c2cc(Cl)c3c(c2)OCO3)C1 (configuration not stated) ; response: value
10.3

Param readout = Percent Effect; param system = Tyrosyl-tRNA synthetase, putative (Trypanosoma cruzi (strain CL Brener)) (UniProt Q4DSP6); param query = Cc1ccc(C(N)c2cccc(S(C)(=O)=O)c2)cc1 (configuration not stated) ; response: value
5.13

Param readout = Percent Effect; param system = Tyrosyl-tRNA synthetase, putative (Trypanosoma cruzi (strain CL Brener)) (UniProt Q4DSP6); param query = CNc1cc(N2CCCC2CNCc2ccc(Cl)o2)ncn1 (configuration not stated) ; response: value
23.2

Param readout = Percent Effect; param system = Tyrosyl-tRNA synthetase, putative (Trypanosoma cruzi (strain CL Brener)) (UniProt Q4DSP6); param query = Cc1ccn(CCC(=O)N2CCOC(c3nc(-c4cccs4)no3)C2)n1 (configuration not stated) ; response: value
10

Param readout = Percent Effect; param system = Tyrosyl-tRNA synthetase, putative (Trypanosoma cruzi (strain CL Brener)) (UniProt Q4DSP6); param query = `Cc1ccoc1C(=O)N1CC[C@H]2O[C@@H](C)C[C@H]2C1` ; response: value
22.5

Param readout = Percent Effect; param system = Tyrosyl-tRNA synthetase, putative (Trypanosoma cruzi (strain CL Brener)) (UniProt Q4DSP6); param query = COc1ccc(CN(C)CC(=O)NC2(C)CCS(=O)(=O)C2)cc1F (configuration not stated) ; response: value
0

Param readout = Percent Effect; param system = Tyrosyl-tRNA synthetase, putative (Trypanosoma cruzi (strain CL Brener)) (UniProt Q4DSP6); param query = `CC(C)C(=O)NCCCn1ncc2c(Cl)cccc21` ; response: value
11.1

Param readout = Percent Effect; param system = Tyrosyl-tRNA synthetase, putative (Trypanosoma cruzi (strain CL Brener)) (UniProt Q4DSP6); param query = Cc1[nH]ncc1C(=O)N1CCN(CC(O)C(C)(C)C)CC1 (configuration not stated) ; response: value
20.5

Param readout = Percent Effect; param system = Tyrosyl-tRNA synthetase, putative (Trypanosoma cruzi (strain CL Brener)) (UniProt Q4DSP6); param query = CC(=O)N1CCc2c(nc(-c3ccccn3)nc2N(C)CC(O)CO)C1 (configuration not stated) ; response: value
21.9

Param readout = Percent Effect; param system = Tyrosyl-tRNA synthetase, putative (Trypanosoma cruzi (strain CL Brener)) (UniProt Q4DSP6); param query = `CC(=O)N1CCOCC2(CCN(Cc3ccc(C)s3)CC2)C1` ; response: value
5
